- Test system: Botrytis cinerea (the causal agent of tomato Botrytis)
- METHOD NOTES: Test C: tomato Botrytis, preventive spray on tomato seedlings, visual disease rating
- Assay type: in vivo
- CONDITION DETAILS: no asterisk: standard test suspension concentration; 100 = 100% disease control, 0 = no control relative to controls
MEASUREMENT KIND: Test C rating (% disease control, tomato Botrytis) (%)
Note: unit % is implicit; provide only the numeric part.

Measured on Botrytis cinerea (the causal agent of tomato Botrytis), Cc1ncc(C(O)c2ccc(F)cc2F)n1-c1c(F)cccc1Br (stereo not shown) has a documented Test C rating (% disease control, tomato Botrytis) of 57

Measured on Botrytis cinerea (the causal agent of tomato Botrytis), Cc1ncc(C(O)c2cccnc2F)n1-c1c(F)cc(F)cc1F (stereo not shown) has a documented Test C rating (% disease control, tomato Botrytis) of 0

Measured on Botrytis cinerea (the causal agent of tomato Botrytis), Cc1nc(Br)c(C(O)c2ccc(F)cc2F)n1-c1c(F)cc(F)cc1Br (stereo not shown) has a documented Test C rating (% disease control, tomato Botrytis) of 100

Measured on Botrytis cinerea (the causal agent of tomato Botrytis), Cc1ncc(C(O)c2ccc(F)cc2F)n1-c1ccc(F)cc1F (stereo not shown) has a documented Test C rating (% disease control, tomato Botrytis) of 0

Measured on Botrytis cinerea (the causal agent of tomato Botrytis), Cc1cc(F)ccc1C(O)c1c(Br)nc(C)n1-c1ccc(F)cc1Cl (stereo not shown) has a documented Test C rating (% disease control, tomato Botrytis) of 100

Measured on Botrytis cinerea (the causal agent of tomato Botrytis), Cc1nc(Br)c(C(O)c2ccc(Cl)cc2)n1-c1ccc(F)cc1F (stereo not shown) has a documented Test C rating (% disease control, tomato Botrytis) of 100

Measured on Botrytis cinerea (the causal agent of tomato Botrytis), Cc1ncc(C(O)c2ccc(F)cc2F)n1-c1ccc(F)cc1Cl (stereo not shown) has a documented Test C rating (% disease control, tomato Botrytis) of 87

Measured on Botrytis cinerea (the causal agent of tomato Botrytis), Cc1nc(Br)c(C(O)c2ccc(F)cc2F)n1-c1ccc(F)cc1Cl (stereo not shown) has a documented Test C rating (% disease control, tomato Botrytis) of 99

Measured on Botrytis cinerea (the causal agent of tomato Botrytis), Cc1cc(F)ccc1C(O)c1cnc(C)n1-c1ccc(F)cc1Cl (stereo not shown) has a documented Test C rating (% disease control, tomato Botrytis) of 21

Measured on Botrytis cinerea (the causal agent of tomato Botrytis), Cc1nc(Br)c(C(O)c2ccc(F)cc2F)n1-c1ccc(F)cc1F (stereo not shown) has a documented Test C rating (% disease control, tomato Botrytis) of 99

Measured on Botrytis cinerea (the causal agent of tomato Botrytis), Cc1cc(F)ccc1C(O)c1cnc(C)n1-c1ccc(F)cc1F (stereo not shown) has a documented Test C rating (% disease control, tomato Botrytis) of 0

Measured on Botrytis cinerea (the causal agent of tomato Botrytis), Cc1nc(Br)c(C(O)c2ccc(F)cc2F)n1-c1c(F)cccc1Br (stereo not shown) has a documented Test C rating (% disease control, tomato Botrytis) of 100

Measured on Botrytis cinerea (the causal agent of tomato Botrytis), Cc1ncc(C(O)c2ccc(Cl)cc2)n1-c1ccc(F)cc1F (stereo not shown) has a documented Test C rating (% disease control, tomato Botrytis) of 0
